System: OVCAR-3-derived ovarian cancer stem-like cells (spheroids)
experiment.notes: cell growth relative to untreated control; higher = more growth (less inhibition)
condition.notes: 2.29 µM; 96 h
Hi all, reminder that labels come from cell growth, split as band A: < 40%; band B: ≥ 40% and < 90%; band C: ≥ 90%

>>> assigned_class("C[C@@H]1CC[C@@]2(OC1)O[C@H]1CC3[C@@H]4CC=C5C[C@@H](O[C@@H]6O[C@H](CO)[C@@H](O[C@@H]7O[C@@H](C)[C@H](O[C@@H]8O[C@@H](C)[C@H](O)[C@@H](O)[C@@H]8O)[C@@H](O)[C@H]7O)[C@H](O)[C@H]6O[C@@H]6O[C@@H](C)C(O)[C@@H](O)[C@H]6O)CC[C@]5(C)[C@H]4CC[C@]3(C)[C@H]1[C@@H]2C (stereo partly drawn)")
"band A"
>>> assigned_class("C[C@@H]1CCOC(=O)/C=C/C=C\\C(=O)O[C@@H]2C[C@H]3O[C@@H]4[C@@H]5O[C@]5(C)[C@H](O)C[C@]4(COC(=O)[C@H]1O)[C@]2(C)[C@@]31CO1")
"band A"
>>> assigned_class("CC[C@H](C)[C@@H]1NC(=O)[C@@H](NC(=O)c2c3nc4c(C(=O)N[C@@H]5C(=O)N[C@@H](C(C)C)C(=O)N6CCC[C@H]6C(=O)N(C)CC(=O)N(C)[C@@H](C(C)C)C(=O)O[C@@H]5C)ccc(C)c4oc-3c(C)c(=O)c2N)[C@@H](C)OC(=O)[C@H](C(C)C)N(C)C(=O)CN(C)C(=O)[C@@H]2CCCN2C1=O")
"band A"
>>> assigned_class("CC[C@](C)(O)C(=O)O[C@H]1C(=O)O[C@@H]2C[C@H]3C(C)=CC(=O)[C@@H](O)[C@]3(C)[C@H]3C4(O)OC[C@]32[C@@H]1[C@@H](C)[C@H]4O")
"band A"
>>> assigned_class("CNC(=O)ON(C(C)=O)C(=O)NC")
"band C"
>>> assigned_class("CC1=C(N2CC2)C(=O)C(CO)=C(N2CC2)C1=O")
"band A"
>>> assigned_class("CCCNC1=C(C)C(=O)C2=C(C1=O)[C@H](COC(N)=O)[C@]1(OC)[C@@H]3N[C@@H]3CN21")
"band B"
>>> assigned_class("CC(=O)O[C@H]1C(=O)[C@@]2(C)[C@H]([C@H](OC(=O)c3ccccc3)[C@]3(O)C[C@H](O)C(C)=C1C3(C)C)[C@]1(OC(C)=O)CO[C@@H]1C[C@@H]2O")
"band C"
>>> assigned_class("CCC(=O)OC1CCn2c1nc1c2C(=O)C(C)=C(N2CC2)C1=O (stereo not drawn)")
"band C"
>>> assigned_class("O=C1N[C@@H]2C(=C[C@H](O)[C@@H](O)[C@H]2O)c2cc3c(c(O)c21)OCO3")
"band C"
>>> assigned_class("C/C(=N\\N=C(/[Se])N1CC2CCC(CC2)C1)c1ccccn1")
"band A"
>>> assigned_class("O=[N+]([O-])c1ccc2c(c1)/C(=N/N=C1c3ccccc3Cc3ccccc31)c1cc([N+](=O)[O-])cc([N+](=O)[O-])c1-2")
"band B"
>>> assigned_class("CC1=C2C(=CC(C)(C)[C@@H]2O)C(=O)[C@](C)(O)C12CC2")
"band A"
>>> assigned_class("C1CCNCC1.S=C(S)N1CCCCC1")
"band A"
>>> assigned_class("O=[Se](O)O.[Na+]")
"band C"
>>> assigned_class("CO[C@@H]1[C@H](O)C[C@@H](O[C@@H]2C[C@H](Oc3cc4cc5c(c(O)c4c(O)c3C)C(=O)[C@@H](O[C@H]3C[C@@H](O[C@H]4C[C@@H](O[C@H]6C[C@](C)(O)[C@@H](OC(C)=O)[C@H](C)O6)[C@H](O)[C@@H](C)O4)[C@H](O)[C@@H](C)O3)[C@H]([C@H](OC)C(=O)[C@@H](O)[C@@H](C)O)C5)O[C@H](C)[C@@H]2OC(C)=O)O[C@@H]1C")
"band A"
>>> assigned_class("C1CN1c1nc(N2CC2)nc(N2CC2)n1")
"band C"
>>> assigned_class("[Cl][Hg][c]1ccc2ccccc2c1")
"band B"
>>> assigned_class("CCCCCn1cc2c3c(cccc31)C1C=C(C)CN(C)[C@@H]1C2.Cc1ccc(C(=O)OC(C(=O)O)C(OC(=O)c2ccc(C)cc2)C(=O)O)cc1 (stereo not drawn)")
"band B"
>>> assigned_class("CC12CCC3C(CCC4CC(OC(=O)Cc5ccc(N(CCCl)CCCl)cc5)CCC43C)C1CCC(=O)N2 (stereo not drawn)")
"band B"
>>> assigned_class("COc1cc([C@@H]2c3cc4c(c(O)c3C[C@H]3COC(=O)[C@@H]32)OCO4)cc(OC)c1OC")
"band A"
>>> assigned_class("COC(=O)[C@@]12OC[C@]34[C@H]([C@@H](O)[C@@H]1O)[C@@]1(C)CC(=O)C(O)=C(C)[C@@H]1C[C@H]3OC(=O)[C@H](OC(=O)/C=C(\\C)C(C)C)[C@@H]24")
"band A"
>>> assigned_class("[O-][n+]1ccccc1[S-].[O-][n+]1ccccc1[S-].[Zn+2]")
"band C"
>>> assigned_class("NC(=O)OCc1c(O)c2c(c(O)c1COC(N)=O)C(=O)C=CC2=O")
"band C"
